B1: library; numbered along this chain (parent)
chain: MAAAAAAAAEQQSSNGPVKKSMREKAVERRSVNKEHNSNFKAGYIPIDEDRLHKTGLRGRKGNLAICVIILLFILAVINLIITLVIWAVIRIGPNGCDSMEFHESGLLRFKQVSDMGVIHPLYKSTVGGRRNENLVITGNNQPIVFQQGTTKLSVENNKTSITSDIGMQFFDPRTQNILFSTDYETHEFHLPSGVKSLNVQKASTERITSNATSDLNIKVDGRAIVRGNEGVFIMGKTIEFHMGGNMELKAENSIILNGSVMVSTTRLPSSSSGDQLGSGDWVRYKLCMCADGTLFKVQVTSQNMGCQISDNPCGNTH

variants of: B1; assay: SGCB cell-surface expression functional score (HA stain, bin4 vs bin1, normalised to synonymous) (log10 ratio); higher = more cell-surface SGCB (functional)
propertyName: SGCB cell-surface expression functional score (log10)
Enter the number alone.

The following variants have reported results that may help.
S13H ... 0.13
Q11D ... 0.04
F171K ... 0.12

# variant "V77P" ; its SGCB cell-surface expression functional score (log10) = -0.24

# variant "I86Y" ; its SGCB cell-surface expression functional score (log10) = -0.61

# variant "W87V" ; its SGCB cell-surface expression functional score (log10) = -0.45
